test: viability loss of HPDE-C7K cells – cell-based, fluorescence, HTS, primary screen (AID 431); conditions: HPDE-C7K KRASV12 cells, Alamar Blue viability, 48 h; at 10 µM; active compounds read high;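 also: 0% = DMSO solvent wells and 100% = doxorubicin-treated wells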
Out of some 63,000 compounds screened, about 1,100 (1.7%) were called active. What follows is part of a selection rich in actives, with near analogues and random picks from the rest. Results with a measured potency or affinity are listed apart.
Quick list: cytotoxicity per entry.
Unit % implied. Number only.

• O=c1cc(-c2ccccc2)[nH]c2ccccc12 = 46.8
• N#Cc1nc(-c2cccs2)oc1NCCc1ccccc1 = 50.3

QUERY: Quick check: cytotoxicity of O=C(NCN1C(=O)C2C3C=CC(C3)C2C1=O)Nc1nccs1 (stereo unspecified) ?
RESULT: -8.1

These entries and their values trace back to PubChem BioAssay AID431.
